protocol_description: Selectivity index, ratio of IC50 for mouse BALB/3T3 cells to IC50 for human A549 cells
Type: toxicity
experimental_conditions: BALB/3T3 cells versus A549 cells, read-out: Ratio IC50
property_measured: selectivity ratio
Give the figure by itself; no unit, no explanation.

Ask: Which selectivity ratio value belongs to "COc1cc(CN[C@H]2CCc3cc(OC)c(OC)c(OC)c3-c3ccc(SC)c(=O)cc32)ccc1O" ?
Reply: 54.2

###

System: LoVo
protocol_description: cells
Assay type: functional, cell-based
experimental_conditions: Homo sapiens, 72 h
Description: Antiproliferative activity against human LoVo cells assessed as inhibition of cell proliferation incubated for 72 hrs by SRB assay
property_measured: pIC50
Reminder that pIC50 is minus the log10 of a molar concentration.

The cases that follow already have their pIC50 on record.
Ask: Which pIC50 value belongs to "COc1cc2c(c(OC)c1OC)-c1ccc(SC)c(=O)cc1[C@@H](NCC(C)C)CC2" ?
Reply: 8.07

Ask: Which pIC50 value belongs to "COc1cc2c(c(OC)c1OC)-c1ccc(SC)c(=O)cc1[C@@H](NCc1cccc(CN[C@H]3CCc4cc(OC)c(OC)c(OC)c4-c4ccc(SC)c(=O)cc43)n1)CC2" ?
Reply: 7.55

Ask: Which pIC50 value belongs to "COc1cc2c(c(OC)c1OC)-c1ccc(SC)c(=O)cc1[C@@H](NC/C=C/c1ccccc1)CC2" ?
Reply: 7.10

Ask: Which pIC50 value belongs to "COc1cc(CN[C@H]2CCc3cc(OC)c(OC)c(OC)c3-c3ccc(SC)c(=O)cc32)ccc1O" ?
Reply: 7.27

Ask: Which pIC50 value belongs to "COc1cc2c(c(OC)c1OC)-c1ccc(SC)c(=O)cc1[C@@H](NCc1ccc(I)cc1)CC2" ?
Reply: 7.14

More entries:
Ask: Which pIC50 value belongs to "COc1ccc(CN[C@H]2CCc3cc(OC)c(OC)c(OC)c3-c3ccc(SC)c(=O)cc32)cc1O" ?
Reply: 8.06

Ask: Which pIC50 value belongs to "COc1cc2c(c(OC)c1OC)-c1ccc(SC)c(=O)cc1[C@@H](NCc1ccc(C)cc1)CC2" ?
Reply: 7.32

Ask: Which pIC50 value belongs to "CCCCCCCCCCCCN[C@H]1CCc2cc(OC)c(OC)c(OC)c2-c2ccc(SC)c(=O)cc21" ?
Reply: 6.34

Ask: Which pIC50 value belongs to "COc1cc2c(c(OC)c1OC)-c1ccc(SC)c(=O)cc1[C@@H](NCc1ccc(Cl)cc1)CC2" ?
Reply: 7.43

Ask: Which pIC50 value belongs to "COc1cc2c(c(OC)c1OC)-c1ccc(SC)c(=O)cc1[C@@H](NCc1ccncc1)CC2" ?
Reply: 8.11

Ask: Which pIC50 value belongs to "CCCCCCN[C@H]1CCc2cc(OC)c(OC)c(OC)c2-c2ccc(SC)c(=O)cc21" ?
Reply: 7.08

###

System: BALB/3T3
protocol_description: Cytotoxicity against mouse BALB/3T3 cells assessed as reduction in cell viability incubated for 72 hrs by SRB assay
Assay type: ADME, cell-based
experimental_conditions: BALB/3T3, 72 h
Overview of reported log10 of IC50 across a group of compounds:
Give log10 of IC50, with IC50 taken in nM.

Ask: Which log10 of IC50 value belongs to "COc1cc2c(c(OC)c1OC)-c1ccc(SC)c(=O)cc1[C@@H](NCc1cccc(CN[C@H]3CCc4cc(OC)c(OC)c(OC)c4-c4ccc(SC)c(=O)cc43)n1)CC2" ?
Reply: 1.70

Ask: Which log10 of IC50 value belongs to "COc1cc(CN[C@H]2CCc3cc(OC)c(OC)c(OC)c3-c3ccc(SC)c(=O)cc32)ccc1O" ?
Reply: 2.59

Ask: Which log10 of IC50 value belongs to "CCCCCN[C@H]1CCc2cc(OC)c(OC)c(OC)c2-c2ccc(SC)c(=O)cc21" ?
Reply: 2.00

More entries:
Ask: Which log10 of IC50 value belongs to "COc1cc2c(c(OC)c1OC)-c1ccc(SC)c(=O)cc1[C@@H](NCc1ccc(F)cc1)CC2" ?
Reply: 1.07

Ask: Which log10 of IC50 value belongs to "COc1cc2c(c(OC)c1OC)-c1ccc(SC)c(=O)cc1[C@@H](NC/C=C/c1ccccc1)CC2" ?
Reply: 1.99

Ask: Which log10 of IC50 value belongs to "CCCN[C@H]1CCc2cc(OC)c(OC)c(OC)c2-c2ccc(SC)c(=O)cc21" ?
Reply: 1.16

Ask: Which log10 of IC50 value belongs to "CCCCN[C@H]1CCc2cc(OC)c(OC)c(OC)c2-c2ccc(SC)c(=O)cc21" ?
Reply: 1.07

Ask: Which log10 of IC50 value belongs to "COc1cc2c(c(OC)c1OC)-c1ccc(SC)c(=O)cc1[C@@H](NCc1ccccc1)CC2" ?
Reply: 0.99

###

protocol_description: cells
Type: functional, cell-based
experimental_conditions: Homo sapiens, LoVo/DX, 72 h
Description: Antiproliferative activity against human Lovo/DX cells assessed as inhibition of cell proliferation incubated for 72 hrs by SRB assay
Mark label 1 only for IC50 values smaller than 70 nM; exact matches and larger values are label 0.

Ask: Please check: IC50 for "COc1cc2c(c(OC)c1OC)-c1ccc(SC)c(=O)cc1[C@@H](NCCc1ccccc1)CC2" , strictly under 70 nM or not?
Reply: label 1

More entries:
Ask: Please check: IC50 for "COc1cc2c(c(OC)c1OC)-c1ccc(SC)c(=O)cc1[C@@H](NCc1ccc(Cl)cc1)CC2" , strictly under 70 nM or not?
Reply: label 1

Ask: Please check: IC50 for "CCCCCCN[C@H]1CCc2cc(OC)c(OC)c(OC)c2-c2ccc(SC)c(=O)cc21" , strictly under 70 nM or not?
Reply: label 0

Ask: Please check: IC50 for "CCCCCN[C@H]1CCc2cc(OC)c(OC)c(OC)c2-c2ccc(SC)c(=O)cc21" , strictly under 70 nM or not?
Reply: label 0

###

Tested on: LoVo
protocol_description: cells
Type: functional, cell-based
experimental_conditions: Homo sapiens, 72 h
Overview of reported pIC50 across a group of compounds:
Reminder that pIC50 is minus the log10 of a molar concentration.

Ask: Which pIC50 value belongs to "COc1cc2c(c(OC)c1OC)-c1ccc(SC)c(=O)cc1[C@@H](NCc1ccccc1O)CC2" ?
Reply: 8.03

Ask: Which pIC50 value belongs to COc1cc2c(c(OC)c1OC)-c1ccc(OC)c(=O)cc1[C@@H](NC(C)=O)CC2 [COLCHICINE] ?
Reply: 7.90

Ask: Which pIC50 value belongs to "CCN[C@H]1CCc2cc(OC)c(OC)c(OC)c2-c2ccc(SC)c(=O)cc21" ?
Reply: 8.19

###

Overview of reported pIC50 across a group of molecules:
Tested on: LoVo
protocol_description: cells
Type: functional, cell-based
experimental_conditions: Homo sapiens, 72 h
Reminder that pIC50 is minus the log10 of a molar concentration.

The cases that follow already have their pIC50 on record.
Ask: Which pIC50 value belongs to "COc1cc2c(c(OC)c1OC)-c1ccc(SC)c(=O)cc1[C@@H](NCc1ccc(F)cc1)CC2" ?
Reply: 8.12

Ask: Which pIC50 value belongs to "CCCCCCCCN[C@H]1CCc2cc(OC)c(OC)c(OC)c2-c2ccc(SC)c(=O)cc21" ?
Reply: 6.04

Pending molecule:
Ask: Which pIC50 value belongs to COc1cccc2c1C(=O)c1c(O)c3c(c(O)c1C2=O)C[C@@](O)(C(=O)CO)C[C@@H]3O[C@H]1C[C@H](N)[C@H](O)[C@H](C)O1 [DOXORUBICIN] ?
Reply: 7.15
